Ref: patent US20250206837A1

# target entity: mouse CD36-His overexpressed on stable F293 cells (mouse, UniProt Q08857 1-472)
# Sequence (Q08857 whole entry): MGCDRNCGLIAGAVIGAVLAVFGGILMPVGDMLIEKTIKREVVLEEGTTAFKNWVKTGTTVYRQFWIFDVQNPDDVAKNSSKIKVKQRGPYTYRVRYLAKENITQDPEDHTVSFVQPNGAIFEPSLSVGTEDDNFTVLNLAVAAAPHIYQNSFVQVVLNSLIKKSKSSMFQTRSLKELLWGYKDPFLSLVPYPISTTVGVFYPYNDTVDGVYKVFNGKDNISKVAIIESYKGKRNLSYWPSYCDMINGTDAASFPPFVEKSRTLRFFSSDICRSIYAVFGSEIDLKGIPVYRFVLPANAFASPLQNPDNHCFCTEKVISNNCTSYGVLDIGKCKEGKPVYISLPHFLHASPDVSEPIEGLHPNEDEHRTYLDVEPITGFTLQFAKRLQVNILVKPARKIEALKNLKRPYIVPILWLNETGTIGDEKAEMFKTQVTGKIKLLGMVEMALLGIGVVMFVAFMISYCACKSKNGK
# assay summary: cell-based or functional assay
Overview of recorded oxLDL uptake IC50 (nM), F293/mCD36 for various binders
Enter your answer as a number in nM; do not include the unit.

A selection of reference data follows.
binder="117_57E (antibody, V domains shown, full-length IgG, human kappa) VH: EVQLVESGGGLVQPGGSLRLSCAASGFTISSFGIHWVRQAPGKGLEWVAWIAPYGGETYYADSVKGRFTISADTSKNTAYLQMNSLRAEDTAVYYCARSFFGYFDYWGQGTLVTVSS VL: DIQMTQSPSSLSASVGDRVTITCRASQDVSNWVAWYQQKPGKAPKLLISYATSLYSGVPSRFSGSGSGTDFTLTISSLQPEDFATYYCQQHSNAPLTFGQGTKVEIKR" observation_type="oxLDL uptake IC50 (nM), F293/mCD36" obs_value=0.796
binder="12P109 (antibody, human IgG1, kappa, N297A, V domains shown, Full-length human IgG1-N297A, kappa; also called 12P109 (IgG1)) VH: EVQLVESGGGLVQPGGSLRLSCAASGFTISSFGIHWVRQAPGKGLEWVAWIAPYGGYTYYADSVKGRFTISADTSKNTAYLQMNSLRAEDTAVYYCARSFFGYFDYWGQGTLVTVSS VL: DIQMTQSPSSLSASVGDRVTITCRASQDVSNWVAWYQQKPGKAPKLLISTSTSLYSGVPSRFSGSGSGTDFTLTISSLQPEDFATYYCQQYYTLPFTFGQGTKVEIKR" observation_type="oxLDL uptake IC50 (nM), F293/mCD36" obs_value=0.86
binder="117_30DA (antibody, V domains shown, full-length IgG, human kappa) VH: EVQLVESGGGLVQPGGSLRLSCAASGFTIDAFGIHWVRQAPGKGLEWVAWIAPYGGYTYYADSVKGRFTISADTSKNTAYLQMNSLRAEDTAVYYCARSFFGYFDYWGQGTLVTVSS VL: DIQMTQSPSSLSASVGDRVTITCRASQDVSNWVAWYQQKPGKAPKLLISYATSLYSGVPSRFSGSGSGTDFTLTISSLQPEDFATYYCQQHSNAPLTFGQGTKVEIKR" observation_type="oxLDL uptake IC50 (nM), F293/mCD36" obs_value=1.07

Now, please, on to the next binder.
Query string: I am curious: what oxLDL uptake IC50 (nM), F293/mCD36 value has been reported for 117_57D (antibody, V domains shown, full-length IgG, human kappa) VH: EVQLVESGGGLVQPGGSLRLSCAASGFTISSFGIHWVRQAPGKGLEWVAWIAPYGGDTYYADSVKGRFTISADTSKNTAYLQMNSLRAEDTAVYYCARSFFGYFDYWGQGTLVTVSS VL: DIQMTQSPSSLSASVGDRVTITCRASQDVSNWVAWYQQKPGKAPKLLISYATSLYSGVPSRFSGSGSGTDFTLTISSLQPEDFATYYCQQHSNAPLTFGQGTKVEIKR ?
Result string: 0.783
